test system: human lung adenocarcinoma cell A549; test: In vitro human lung adenocarcinoma cell A549 inhibitory activity (MTT); format: cell-based; conditions: Homo sapiens, A549, 48 h
parameter: IC50 (µg/mL)

Known results for molecules:
>>> meas_value("COc1cc(NCc2ccc(C)o2)ccc1-c1cnco1")
20.7
>>> meas_value("COc1cc(NC/C=C/c2ccccc2)ccc1-c1cnco1")
32
>>> meas_value("COc1ccc(CNc2ccc(-c3cnco3)c(OC)c2)cc1")
29.4
>>> meas_value("CCc1ccc(CNc2ccc(-c3cnco3)c(OC)c2)s1")
10.7
>>> meas_value("COc1cc(NCc2csc3ccccc23)ccc1-c1cnco1")
11.6
>>> meas_value("COc1cc(NCc2ccsc2)ccc1-c1cnco1")
29.7

P. COc1cc(NCc2scnc2C)ccc1-c1cnco1
Q. COc1cc(NCc2ccc(C)s2)ccc1-c1cnco1
**Q:** Between P and Q , which one shows the smaller IC50 number? Field: selected label. Fill in the label of the entry you choose.
**A:** Q
